study.target: T1, HCV Core1-169 (hepatitis C virus (HCV-1), UniProt P26664 1-169)
T1 sequence: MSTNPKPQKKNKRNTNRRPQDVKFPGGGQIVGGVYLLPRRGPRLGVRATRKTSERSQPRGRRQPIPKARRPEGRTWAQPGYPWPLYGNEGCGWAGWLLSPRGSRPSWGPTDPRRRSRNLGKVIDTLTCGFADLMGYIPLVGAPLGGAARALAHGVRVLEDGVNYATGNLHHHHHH
assay.summary: SPR sandwich, capture mAb C11-9
result.type: expected percent binding (%)
Response body: numeric value in %, unit text excluded.

binder	measured.value
HCV 208B-251 (antibody, V domains shown) VH: QLQQSGPVLVKPGASVKISCKTSGYTFTENAMHWVKQSHGKSLEWIGGVNPNNGDTIYNQKFKGKATLTVDKSSSTAFMELRSLTSEESPVYFCVRRELDFFDYWGQGTSVTVSS VL: DIVLTQSPASLAVSLGKKATISCRASQSVSTSRYSYMHWYQQKPGHPPKLLIKYASNLESGVPARFSGSGSGTDFTLNIHPVAEEDTAAYYCQHSWEFPFTFGSGTKLEIKR	12.3

--- query ---
**Query** Recorded expected percent binding for HCV 208A-830 (antibody, V domains shown) VH: EVRLQQPGPEVEKPGASVKISCKTSGYTFTEYAIHWVKQSHGESLEWIGGINPSNGDPIYNQIFKDKATLTVDRSSNTAYMGLRSLTVGDSGVYFCVRRQLDYFDFWGQGASLTVSS VL: DIVLTQSPASLAVSLGQRATISCRSSQSVSTSRYSYLHWYQQKPGQPPKLLIKYASNLESGVPARFSGSGSGTDFTLNIHPVGEEDPATYYCQHSWEFPFTFGSGTKLEIKR , please?
**Result** 7.9
